Molecular target: biotinylated CD59 (Homo sapiens)
Construct: Recombinant soluble human CD59 with an additional C-terminal cysteine residue
Sequence (P13987 26-102 limits assumed): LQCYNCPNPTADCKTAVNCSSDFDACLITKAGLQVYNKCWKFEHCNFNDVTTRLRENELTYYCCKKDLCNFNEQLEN
Test: mRNA-display cyclic peptide screen against CD59-biotin, NGS abundance after 6th selection round
Conditions: counts normalised by total counts of sample Seq I; percentage of the pool, sheet R6

| Construct sequence | Units label | Percentage Seq I |
| --- | --- | --- |
| CYGGRTFIYAWT | % | 0.043 |
| LRGSYDYQLYFG | % | 0.013 |
| GRLNECHVIWS | % | 0.015 |
| SRNGIQFTCS | % | 0.036 |
| YVYGSRDRCWG | % | 0.445 |
| YIIGSSDYTRG | % | 0.033 |
| SAWGNRQTQYY | % | 1.151 |
| CFSARTDSSGT | % | 0.053 |
| SAWGNRQVQYY | % | 0.110 |
| SWQNECFRLRT | % | 0.013 |
| SAYGSRDFAWA | % | 0.024 |
| CYGGRTFIYAWS | % | 8.492 |
| CFYTRIDAFST | % | 0.081 |
| TFAHRVGSCQST | % | 0.019 |
| RYGGRTFIYAWS | % | 0.025 |
| WTCHLRHDGPHA | % | 1.997 |
| CFKKRLDTVST | % | 0.021 |
| CFSKRIAPGAQ | % | 0.020 |
| SARGNRQIQYY | % | 0.026 |
| CFASRLTIDAV | % | 0.032 |

* * *

Target: biotinylated CD59 (Homo sapiens)
Construct: Recombinant soluble human CD59 with an additional C-terminal cysteine residue
Sequence (P13987 26-102 limits assumed): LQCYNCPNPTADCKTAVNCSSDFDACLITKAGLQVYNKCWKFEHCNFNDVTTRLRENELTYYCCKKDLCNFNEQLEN
Test: mRNA-display cyclic peptide screen against CD59-biotin, NGS abundance after 6th selection round
Details: percentage of the pool averaged across the two sequencing samples, sheet R6
sequences and their reported Percentage Average

| Construct sequence | Units label | Percentage Average |
| --- | --- | --- |
| CFAHRITDPNTQ | % | 0.020 |
| STKNDYNNVPC | % | 0.019 |
| HVIGNRSFTRG | % | 0.018 |
| CIDVYGRMWA | % | 0.088 |
| FISGSRSWRKQ | % | 0.030 |
| ASWLTAPCYV | % | 0.025 |
| HCWVRGSRNYT | % | 2.559 |
| FQRGTRSTSWG | % | 0.045 |
| YAWGNRNNAYY | % | 0.054 |
| IARGDRNHQFY | % | 0.273 |

* * *

Biological target: biotinylated CD59 (Homo sapiens, UniProt P13987)
Construct: Recombinant soluble human CD59 with an additional C-terminal cysteine residue
Sequence (P13987 26-102 limits assumed): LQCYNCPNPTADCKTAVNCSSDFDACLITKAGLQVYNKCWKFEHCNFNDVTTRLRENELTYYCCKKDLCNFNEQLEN
Assay: mRNA-display cyclic peptide screen against CD59-biotin, NGS abundance after 6th selection round
Settings: counts normalised by total counts of NGS sample Seq I, sheet R6
From the text: To discover novel non‐protein CD59 ligands, we screened a library of 10^12 cyclic peptides against CD59 using mRNA‐display (Figure 2a).^[ [23], [24], [25], [26], [27], [28], [29] ^] Briefly, an mRNA library was designed in which the start codon was reprogrammed from Met to N‐chloroacetyl‐D‐Tyr (ClAc‐D‐Tyr), followed by 10–12 randomly encoded natural amino acids, a Cys residue, a (GlySer)3 linker, and a stop codon. […]
Everything with Percentage of the pool, Seq I lower than 0.01% is Criterion not met; everything else, including exactly 0.01%, is Criterion met.

| Construct sequence | Category label |
| --- | --- |
| SAWGNRLIQYY | Criterion met |
| FVTGNRDNTRG | Criterion met |
| WIYGGRHFRLS | Criterion met |
| YVTGNRDHTRG | Criterion met |
| CYSLRLGPETV | Criterion not met |
| LWGTHSYTYYRP | Criterion met |
| CFSSRTGTTSV | Criterion not met |
| CFQNRMAYGDI | Criterion not met |
| CFAKRIVALHST | Criterion met |
| CPRYVSRGFA | Criterion met |
| CYGNSHAS | Criterion not met |
| CFSRRLTEGAI | Criterion not met |
| FVLGNRHTIVG | Criterion met |
| CSAGRLTIDAV | Criterion not met |
| LWWSDFYLCVVVRQRQRQLGRGAE | Criterion met |
| SAWGNRQIKYY | Criterion met |
| SAWGNRQIQHY | Criterion met |

* * *

Biological target: biotinylated CD59 (Homo sapiens)
Construct: Recombinant soluble human CD59 with an additional C-terminal cysteine residue
Sequence (P13987 26-102 limits assumed): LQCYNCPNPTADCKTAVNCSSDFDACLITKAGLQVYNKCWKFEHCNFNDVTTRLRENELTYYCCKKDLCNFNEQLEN
Assay: mRNA-display cyclic peptide screen against CD59-biotin, NGS abundance after 6th selection round
Details: raw NGS counts of peptide sequence, sequencing sample Seq II, sheet R6 (6th selection round)

| Construct sequence | Assay system | Counts Seq II |
| --- | --- | --- |
| CPQLILRGWQ | biotinylated CD59 (Homo sapiens) | 19 |
| YARGNNASQFF | biotinylated CD59 (Homo sapiens) | 38 |
| CFSARTDSSGT | biotinylated CD59 (Homo sapiens) | 17 |
| CFARRVNNSSL | biotinylated CD59 (Homo sapiens) | 12 |
| CYGNSHASWG | biotinylated CD59 (Homo sapiens) | 202 |
| GYLNECHTLYTQ | biotinylated CD59 (Homo sapiens) | 22 |
| CFTGRLSLDSI | biotinylated CD59 (Homo sapiens) | 17 |
| GRLNECHVIWS | biotinylated CD59 (Homo sapiens) | 16 |
| CFAGRLTIDAV | biotinylated CD59 (Homo sapiens) | 1100 |
| CYGGRTFIYAWS | biotinylated CD59 (Homo sapiens) | 3489 |
| IARGDWNHQFY | biotinylated CD59 (Homo sapiens) | 194 |
| IARGDRTFSFG | biotinylated CD59 (Homo sapiens) | 15 |
| VARGNSNTVWG | biotinylated CD59 (Homo sapiens) | 9 |
| YVYGSRDRCWG | biotinylated CD59 (Homo sapiens) | 190 |
| WRDRFDQCVL | biotinylated CD59 (Homo sapiens) | 1013 |
| CFSRRSTSSQST | biotinylated CD59 (Homo sapiens) | 8 |
| GYLNECWYGLS | biotinylated CD59 (Homo sapiens) | 35 |
| YVFWSRTHTYG | biotinylated CD59 (Homo sapiens) | 71 |
| SVTGNRDHTRG | biotinylated CD59 (Homo sapiens) | 11 |
| CYTAGSASWSRG | biotinylated CD59 (Homo sapiens) | 293 |
| FITGNRDHTRG | biotinylated CD59 (Homo sapiens) | 11 |
| STYNDFFRVPC | biotinylated CD59 (Homo sapiens) | 86 |
| RGGTRDTIWG | biotinylated CD59 (Homo sapiens) | 27 |
| CYGGRTFIYACS | biotinylated CD59 (Homo sapiens) | 9 |
| CFSRRLTAGAI | biotinylated CD59 (Homo sapiens) | 901 |
| FVTGNRGHTRG | biotinylated CD59 (Homo sapiens) | 7 |
| CFSRRLTAGAV | biotinylated CD59 (Homo sapiens) | 13 |
| YVFGNRSFTRG | biotinylated CD59 (Homo sapiens) | 226 |
| CFTYRLSDEPSA | biotinylated CD59 (Homo sapiens) | 7 |
| AVHGSSFYVWG | biotinylated CD59 (Homo sapiens) | 17 |
| CIRGTPTTVWG | biotinylated CD59 (Homo sapiens) | 156 |
| VKYGNSNFVRE | biotinylated CD59 (Homo sapiens) | 26 |
| CFRFRLNATSS | biotinylated CD59 (Homo sapiens) | 26 |
| CLDKWGRLWT | biotinylated CD59 (Homo sapiens) | 18 |
| CFAHRITDPNTQ | biotinylated CD59 (Homo sapiens) | 6 |
| SKNGLTFLCN | biotinylated CD59 (Homo sapiens) | 91 |
| CYGGRTYIYAWS | biotinylated CD59 (Homo sapiens) | 8 |
| CFASRLTIDAV | biotinylated CD59 (Homo sapiens) | 12 |
| STKNDYNNVPC | biotinylated CD59 (Homo sapiens) | 11 |
| WATGSATFSSG | biotinylated CD59 (Homo sapiens) | 290 |
| FVRGDLHSVLG | biotinylated CD59 (Homo sapiens) | 19 |
| RIGTSTCPFKFS | biotinylated CD59 (Homo sapiens) | 10 |
| ASWLTAPCYV | biotinylated CD59 (Homo sapiens) | 8 |
| GYLNECHTLYTR | biotinylated CD59 (Homo sapiens) | 278 |
| EIRGALNWVRG | biotinylated CD59 (Homo sapiens) | 63 |
| SSWAQVPCYS | biotinylated CD59 (Homo sapiens) | 14 |
| CFARRLSASSGT | biotinylated CD59 (Homo sapiens) | 12 |
| VAHGSKKSQFW | biotinylated CD59 (Homo sapiens) | 45 |
| WILGSRWWTQS | biotinylated CD59 (Homo sapiens) | 389 |
| RYGGRTFIYAWS | biotinylated CD59 (Homo sapiens) | 11 |
| RAWGNRYIAYY | biotinylated CD59 (Homo sapiens) | 13 |
| SFAKRVAAQGGC | biotinylated CD59 (Homo sapiens) | 9 |
| SAWGNRQIQYC | biotinylated CD59 (Homo sapiens) | 12 |
| CFAKRLSLDAL | biotinylated CD59 (Homo sapiens) | 76 |
| HAFGSRDITYY | biotinylated CD59 (Homo sapiens) | 117 |
| FISGSRSWRKQ | biotinylated CD59 (Homo sapiens) | 10 |
| CYGGRTFIHAWS | biotinylated CD59 (Homo sapiens) | 21 |
| CAWGNRHTAYY | biotinylated CD59 (Homo sapiens) | 13 |
| CAWGNRHIAYY | biotinylated CD59 (Homo sapiens) | 84 |
| LRGSYDYQLYFG | biotinylated CD59 (Homo sapiens) | 10 |
| CFAARARNNQTV | biotinylated CD59 (Homo sapiens) | 40 |
| LCAENPLRPR | biotinylated CD59 (Homo sapiens) | 33 |
| AVAGSRHWAWG | biotinylated CD59 (Homo sapiens) | 17 |
| EARGTKSFAYY | biotinylated CD59 (Homo sapiens) | 43 |
| ILGSRDTIKYW | biotinylated CD59 (Homo sapiens) | 72 |
| CFSARAILDGGW | biotinylated CD59 (Homo sapiens) | 107 |
| SWTWGNRSTVRG | biotinylated CD59 (Homo sapiens) | 11 |
| FVRGGLYSVLG | biotinylated CD59 (Homo sapiens) | 8 |
| FIFGNRNWTFG | biotinylated CD59 (Homo sapiens) | 9 |
| CFSKRIAPGAQ | biotinylated CD59 (Homo sapiens) | 8 |
| CFSTRLSRSYGT | biotinylated CD59 (Homo sapiens) | 11 |
| NTAWGNVAVAYF | biotinylated CD59 (Homo sapiens) | 13 |
| LWGTHSYIYYRP | biotinylated CD59 (Homo sapiens) | 211 |
| FVFGNRHFRTE | biotinylated CD59 (Homo sapiens) | 212 |
| CFAGRLTVDAV | biotinylated CD59 (Homo sapiens) | 13 |
| FQYFGTGIAFG | biotinylated CD59 (Homo sapiens) | 140 |
| FVTGSRDHTRG | biotinylated CD59 (Homo sapiens) | 23 |
| CFVNRLRSAESR | biotinylated CD59 (Homo sapiens) | 62 |
| CFSWRLGPAEK | biotinylated CD59 (Homo sapiens) | 12 |
| WSTGSSTFAAG | biotinylated CD59 (Homo sapiens) | 18 |
| WTRGSKDYTRG | biotinylated CD59 (Homo sapiens) | 72 |
| CLRLHREPGSL | biotinylated CD59 (Homo sapiens) | 58 |
| SAWGSRQIQYY | biotinylated CD59 (Homo sapiens) | 22 |
